Parameter IC50 at 72 h: see the listing below.
experiment: Cell culture cytotoxicity, D98; type: cell-based; details: human, D98 bone marrow cell line; Table D, 5,6-dihydro 3-methyl derivatives; read-out: Tumor Cell Culture Cytotoxicity IC50 Other (D98)
measured.endpoint: IC50 at 72 h

1. Cc1nc2c(c(=O)[nH]1)-c1ccc([N+](=O)[O-])cc1CC2
52 µM
2. Cc1nc(O)c2c(n1)CCc1ccc(I)cc1-2
70 µM

====

target: Mammalian Thymidylate Synthase (Homo sapiens); construct: made in house; host or cells: Escherichia coli; test: Thymidylate synthase inhibition, tritium release assay; type: biochemical
Parameter IC50: see the listing below.
measured.endpoint: IC50

1. Nc1nc2ccc3c([N+](=O)[O-])c(Br)ccc3c2c(=O)[nH]1
1 to 300 µM
2. COCc1cc2nc(N)nc(O)c2c2ccccc12
1 to 300 µM
3. CCc1ccc2ccc3nc(N)[nH]c(=O)c3c2c1
< 1 µM
4. Nc1nc2ccc3c(F)cccc3c2c(=O)[nH]1
1 to 300 µM
5. Cc1cc2nc(N)nc(O)c2c2cc(Cl)ccc12
< 1 µM
6. Nc1nc2ccc3ccc(O)cc3c2c(=O)[nH]1
< 1 µM
7. Nc1nc2ccc3c(I)cccc3c2c(=O)[nH]1
1 to 300 µM
8. Nc1nc2ccc3c(Cl)cccc3c2c(=O)[nH]1
1 to 300 µM
9. CN(C)S(=O)(=O)c1ccc2ccc3nc(N)[nH]c(=O)c3c2c1
1 to 300 µM
10. Nc1nc(O)c2c(n1)CCc1cc([N+](=O)[O-])ccc1-2
1 to 300 µM
11. CCN(CC)S(=O)(=O)c1ccc2c(c1)-c1c(nc(C)[nH]c1=O)CC2
1 to 300 µM
12. Nc1nc(O)c2c(ccc3ccc(F)cc32)n1
< 1 µM

====

assay: Cell culture cytotoxicity, D98; format: cell-based; conditions: human, D98 bone marrow cell line; Table C, 5,6-dihydro 3-amino derivatives; read-out: Tumor Cell Culture Cytotoxicity IC50 Other (D98)
measured.endpoint: IC50 at 72 h (µM)

1. CCSc1ccc2c(c1)-c1c(nc(N)[nH]c1=O)CC2
54

====

measured.endpoint: melting point

1. CCCCCCCCCCCCOC(=O)CCC(=O)c1ccc(NCc2ccc3ccc4nc(C)[nH]c(=O)c4c3c2)cc1
213 to 214 °C
2. CC(=O)c1ccc(NCc2ccc3ccc4nc(C)[nH]c(=O)c4c3c2)cc1
> 235 °C
3. CCN(CC)S(=O)(=O)c1ccc2ccc3nc(N)[nH]c(=O)c3c2c1
> 250 °C
4. Cc1nc2c(c(=O)[nH]1)-c1cc(S(=O)(=O)Nc3ccc([N+](=O)[O-])cc3)ccc1CC2
> 240 °C
5. Cc1nc2c(c(=O)[nH]1)-c1cc(S(=O)(=O)Nc3ccc(C(N)=O)cc3)ccc1CC2
190 °C
6. CC(=O)c1ccc(NS(=O)(=O)c2ccc3c(c2)-c2c(nc(C)[nH]c2=O)CC3)cc1
> 240 °C
7. Nc1nc2ccc3ccc(CNc4ccc(F)cc4)cc3c2c(=O)[nH]1
> 230 °C
8. CCN(CC)S(=O)(=O)c1ccc2c(c1)-c1c(nc(C)[nH]c1=O)CC2
249 to 251 °C
9. Nc1nc2ccc3cc(S(=O)(=O)Nc4ccc(C(=O)N[C@@H](CCC(=O)O)C(=O)O)cc4)c(Br)cc3c2c(=O)[nH]1
238 to 242 °C
10. Cc1nc2c(c(=O)[nH]1)-c1cc(S(N)(=O)=O)ccc1CC2
> 240 °C

====

molecular target: Mammalian Thymidylate Synthase (Homo sapiens, UniProt P04818); construct: made in house; host or cells: Escherichia coli; assay: Thymidylate synthase inhibition, tritium release assay; type: biochemical
Sequence (P04818 whole entry): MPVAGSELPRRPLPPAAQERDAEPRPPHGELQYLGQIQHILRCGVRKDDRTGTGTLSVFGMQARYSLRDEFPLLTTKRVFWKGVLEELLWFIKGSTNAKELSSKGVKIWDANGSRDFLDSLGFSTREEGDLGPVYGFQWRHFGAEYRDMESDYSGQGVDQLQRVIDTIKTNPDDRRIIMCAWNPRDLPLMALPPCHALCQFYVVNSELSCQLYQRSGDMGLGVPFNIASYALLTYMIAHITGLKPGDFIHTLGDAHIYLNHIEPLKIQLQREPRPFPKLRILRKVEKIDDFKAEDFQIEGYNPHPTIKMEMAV
pIC50: −log10 of the molar value.
measured.endpoint: pIC50

1) Cc1nc2c(c(=O)[nH]1)-c1cc(S(=O)(=O)Cl)ccc1CC2
3.52 to 6.00
2) Nc1nc(O)c2c(ccc3ccc(I)cc32)n1
> 6.00
3) Nc1nc2c(c(=O)[nH]1)-c1ccc(S(N)(=O)=O)cc1CC2
3.52 to 6.00
4) Nc1nc2ccc3c(N)c(Br)ccc3c2c(=O)[nH]1
3.52 to 6.00
5) Nc1nc2ccc3c([N+](=O)[O-])c(F)ccc3c2c(=O)[nH]1
3.52 to 6.00
6) Nc1nc2ccc3cc(F)cc(N)c3c2c(=O)[nH]1
3.52 to 6.00

====

assay: Cell culture cytotoxicity, D98; assay type: cell-based; conditions: human, D98 bone marrow cell line; Table E, fully aromatic 3-methyl derivatives; read-out: Tumor Cell Culture Cytotoxicity IC50 Other (D98)
measured.endpoint: IC50 at 72 h (µM)

1) Cc1nc2ccc3ccc(CNc4ccc(C(=O)CCC(=O)O)cc4)cc3c2c(=O)[nH]1
13.5
2) Cc1nc(O)c2c(ccc3ccc(F)cc32)n1
72
3) Cc1nc2ccc3ccc(Cl)cc3c2c(=O)[nH]1
82
4) Cc1nc2ccc3ccc(CNc4ccc5c(c4)CCC5=O)cc3c2c(=O)[nH]1
0.25

====

system: MCF-7 human breast adenocarcinoma; experiment: Tumor cell culture cytotoxicity (MTT dye reduction), MCF-7; assay type: cell-based; conditions: MCF7, Table B, fully aromatic 3-amino derivatives, read-out: Tumor Cell Culture Cytotoxicity IC50 Other (MCF-7)
measured.endpoint: IC50 (nM)

1) CC(=O)c1ccc(NCc2ccc3ccc4nc(N)[nH]c(=O)c4c3c2)cc1
30

====

system: SW480 human colon adenocarcinoma; assay: Tumor cell culture cytotoxicity (MTT dye reduction), SW480; settings: Homo sapiens, SW480, read-out: Tumor Cell Culture Cytotoxicity IC50 SW480, Table E, fully aromatic 3-methyl derivatives
measured.endpoint: IC50 (nM)

1) Cc1nc2ccc3ccc(CNc4ccc([N+](=O)[O-])cc4)cc3c2c(=O)[nH]1
400
2) Cc1nc2ccc3ccc(CNc4ccc(C(=O)CCC(=O)O)cc4)cc3c2c(=O)[nH]1
700
3) Cc1nc2ccc3ccc(CNc4ccc(C(=O)O)cc4)cc3c2c(=O)[nH]1
2200
4) Cc1nc2ccc3ccc(CNc4ccc(C#N)cc4)cc3c2c(=O)[nH]1
30

====

experiment: Cell culture cytotoxicity, L cells; assay type: cell-based; settings: mouse, L fibroblast cell line; Table C, 5,6-dihydro 3-amino derivatives; read-out: Tumor Cell Culture Cytotoxicity IC50 Other (L)
measured.endpoint: IC50 at 72 h

1) CSc1ccc2c(c1)-c1c(nc(N)[nH]c1=O)CC2
46 µM
2) CCSc1ccc2c(c1)-c1c(nc(N)[nH]c1=O)CC2
33 µM

====

Parameter IC50 at 72 h: see the listing below.
assay: Cell culture cytotoxicity, D98; format: cell-based; conditions: human, D98 bone marrow cell line; Table B, fully aromatic 3-amino derivatives; read-out: Tumor Cell Culture Cytotoxicity IC50 Other (D98)
measured.endpoint: IC50 at 72 h (µM)

1) Nc1ccc2c(ccc3nc(N)nc(O)c32)c1
53
2) Nc1nc2ccc3c([N+](=O)[O-])c(F)ccc3c2c(=O)[nH]1
20
3) Nc1nc2ccc3c(Cl)cccc3c2c(=O)[nH]1
60
4) Nc1nc2ccc3c(Br)cccc3c2c(=O)[nH]1
56
5) COCc1cc2nc(N)nc(O)c2c2ccccc12
74
6) Cc1cccc2c1ccc1nc(N)[nH]c(=O)c12
53

====

Parameter pIC50: see the listing below.
target: Mammalian Thymidylate Synthase (Homo sapiens); construct: made in house; host or cells: Escherichia coli; assay: Thymidylate synthase inhibition, tritium release assay; assay type: biochemical
pIC50: −log10 of the molar value.
measured.endpoint: pIC50

1) Nc1nc2ccc3cc(Cl)c(Cl)cc3c2c(=O)[nH]1
> 6.00
2) Cc1cccc2c1ccc1nc(N)[nH]c(=O)c12
3.52 to 6.00
3) Nc1nc2c3ccccc3c3ccccc3c2c(=O)[nH]1
3.52 to 6.00
4) Cc1nc2c(c(=O)[nH]1)-c1cc(S(N)(=O)=O)ccc1CC2
3.52 to 6.00
5) Nc1nc2ccc3c(Br)cccc3c2c(=O)[nH]1
3.52 to 6.00
